Cited source for all entries: PubChem BioAssay AID1476

Reported Potency values for the following molecules.
# measurementTarget: Cruzipain (Trypanosoma cruzi) (UniProt P25779)
# Sequence (P25779 123-467 limits assumed): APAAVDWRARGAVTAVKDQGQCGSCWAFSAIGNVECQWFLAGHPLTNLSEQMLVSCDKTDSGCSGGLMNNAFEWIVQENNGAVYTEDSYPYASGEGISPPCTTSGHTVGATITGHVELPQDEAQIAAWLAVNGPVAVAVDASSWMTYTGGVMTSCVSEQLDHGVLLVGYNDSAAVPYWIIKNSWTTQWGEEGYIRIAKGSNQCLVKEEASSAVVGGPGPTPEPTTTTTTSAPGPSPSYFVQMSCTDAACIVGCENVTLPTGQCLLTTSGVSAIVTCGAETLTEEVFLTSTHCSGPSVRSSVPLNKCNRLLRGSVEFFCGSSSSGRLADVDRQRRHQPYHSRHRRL
# assayOverview: qHTS Assay for Promiscuous and Specific Inhibitors of Cruzain (without detergent); further: nearly all actives have a fitted effect of over 40% in size; further: potency means the concentration at half of the fitted maximal effect
# measurementSetup: purified cruzain, Z-FR-AMC fluorescence, no detergent
Hit rate of the full screen: of about 200,000 compounds, about 4,500 (2.2%) were called active. Another 12% or so got no clear call; they are omitted. The full list was thinned out, with actives kept by preference.

molecule	Potency
CCC1=Nc2cc(C(=O)NCC(C)c3ccccc3)ccc2Sc2ccc(C)cc21 (stereo not given)	12.6 µM (active)
Cc1cc(C)c2nc(NC(=O)c3ccc4c(c3)OCO4)sc2c1	10 µM (active)
COc1cc(OC)c2c(-c3cccc(-c4cccc(N)c4)c3)cc(=O)oc2c1	11.2 µM (active)
O=C(NNc1c2ccccc2nc2ccccc12)c1cc2ccccc2cc1O	7.94 µM (active)
COc1cccc(C(=O)Nc2ccc3oc(-c4ccc5ccccc5c4)nc3c2)c1	12.6 µM (active)
Cc1[nH]c2ccccc2c1/C=N\NC(=O)Cn1nnc(-c2ccccc2)n1	7.94 µM (active)
COc1ccc(S(=O)(=O)c2c(Nc3cccc(Cl)c3)sc(C(=O)c3ccccc3)c2N)cc1	3.98 µM (active)
COc1ccc(C(=O)Nc2ccccc2C(=O)N/N=C/c2ccccc2OC)cc1	25.1 µM (active)
COc1ccc(C)cc1NC(=O)C(OC(=O)c1cccc(S(=O)(=O)N(C)c2ccccc2)c1)c1ccccc1 (stereo not given)	7.94 µM (active)
Cc1cccc(COc2ccccc2/C=N/Nc2ccc([N+](=O)[O-])cc2)c1	25.1 µM (active)

###

# measurementTarget: Cruzipain (Trypanosoma cruzi)
# assayOverview: qHTS Assay for Promiscuous and Specific Inhibitors of Cruzain (without detergent); further: nearly all actives have a fitted effect of over 40% in size;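 on max response, negative = inhibition: plate controls were enzyme without inhibitor for no effect and buffer without enzyme for full effect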
# measurementSetup: purified cruzain, Z-FR-AMC fluorescence, no detergent
# Protocol: Cruzain is a cysteine protease from the tropical parasite Trypanosoma cruzi. […] Cruzain was assayed by the use of fluorogenic coumarin-based substrate Z-FR-AMC: proteolytic cleavage releases AMC, whose fluorescence is measured at 360 nm excitation and 450 nm emission. […]
Out of some 200,000 compounds screened, about 4,500 (2.2%) were called active. Not shown: some 12% with an inconclusive outcome. The full list was thinned out, with actives kept by preference.
quantity: max response, negative = inhibition (%)

compound	testValue
O=C(CN1CCN(Cc2ccc(Cl)cc2)C1=O)NCc1ccc(F)cc1	-6.99
Cc1nc(SCC(=O)Nc2cc(C)on2)c2c(C)c(C)sc2n1	-4.16
CC(=O)N1c2ccccc2CC1C(=O)N1CCN(c2ccc(F)cc2)CC1 (stereo unspecified)	13.9
COc1cc(NS(=O)(=O)c2ccc3c(c2)OCC(C(=O)N2CCCC2)O3)cc(OC)c1 (stereo unspecified)	1.72
Cc1cccc(CC(=O)N2CCN=C2SCc2ccc([N+](=O)[O-])cc2)c1	-7.03
Cc1cccc(NC(=O)COc2ccccc2C)n1	10.4
CCOc1ccccc1NC(=O)C1CCCN(S(=O)(=O)c2cn(C)cn2)C1 (stereo unspecified)	-18.2
N#CC1=C(SCc2ccccc2)NC(=O)C(C#N)C12CCCC2 (stereo unspecified)	-1.74
Cc1ccc(-c2nc3ccccn3c2Nc2c(C)cccc2C)o1	0.509
Cc1sc2ncnc(Sc3nc4ccccc4s3)c2c1C	-16.3
Cc1cc([N+](=O)[O-])ccc1NCc1cccc([N+](=O)[O-])c1	2.12

###

Attribute: max response, negative = inhibition
# measurementTarget: Cruzipain (Trypanosoma cruzi) (UniProt P25779)
# assayOverview: qHTS Assay for Promiscuous and Specific Inhibitors of Cruzain (without detergent); further: nearly all actives have a fitted effect of over 40% in size;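 on max response, negative = inhibition: plate controls were enzyme without inhibitor for no effect and buffer without enzyme for full effect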
# measurementSetup: purified cruzain, Z-FR-AMC fluorescence, no detergent
Among all 200,000 compounds or so, about 4,500 (2.2%) were called active. Not shown: some 12% with an inconclusive outcome. For the sample, actives were picked, then their nearest neighbours and some compounds at random.
quantity: max response, negative = inhibition (%)

compound	units	testValue
Cc1cc(C(=O)OCC(=O)N2c3ccccc3NC(=O)C2(C)C)c(C)n1-c1ccccc1	%	-5.2
COc1cc(OC)c(N(C)C(=O)c2cc3c(=O)oc4ccccc4c3s2)cc1Cl	%	6.95
COC(=O)c1ccc(C2C(C(=O)Nc3ccccc3)=C(C)Nc3nc4ccccc4n32)cc1 (stereo not given)	%	-6.78
O=C(Nc1cc(Cl)cc(Cl)c1)c1ccc2c(c1)N(Cc1cccc(Cl)c1)C(=O)c1ccccc1S2=O (stereo not given)	%	-5.94
COc1ccc(CCNC(=O)CCCn2c(=O)c3ccccc3n(Cc3ccc(C)cc3)c2=O)cc1OC	%	-4.62
COc1ccc(Br)cc1C1CC(=O)Nc2c1c(C)nn2-c1nc(C)cc(C)n1 (stereo not given)	%	3.34
COc1cccc(/C=N\NC(=O)C2=NNC(=O)C2C)c1O (stereo not given)	%	14.7
CC(C(=O)Nc1ccc(Cl)cc1Cl)N1CC=C(c2ccccc2)CC1 (stereo not given)	%	3.73
Cc1n[nH]c(=O)n1-c1ccc(Oc2ccccc2)cc1	%	4.55
CCOC(=O)C1CCN(c2ncnc3c2c(-c2ccccc2)cn3-c2cccc(C)c2)CC1	%	9.85

###

# measurementTarget: Cruzipain (Trypanosoma cruzi) (UniProt P25779)
# assayOverview: qHTS Assay for Promiscuous and Specific Inhibitors of Cruzain (without detergent); further: nearly all actives have a fitted effect of over 40% in size;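 on max response, negative = inhibition: plate controls were enzyme without inhibitor for no effect and buffer without enzyme for full effect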
# measurementSetup: purified cruzain, Z-FR-AMC fluorescence, no detergent
Among all 200,000 compounds or so, about 4,500 (2.2%) were called active. Roughly 12% stayed inconclusive and do not appear here. For the sample, actives were picked, then their nearest neighbours and some compounds at random.

compound	max response, negative = inhibition
Cn1c(=O)cc(OCC(=O)N2CCN(c3ccccc3)CC2)c2ccccc21	3.14% (inactive)
NS(=O)(=O)c1ccc(N=Cc2ccc(Br)s2)cc1	-5.17% (inactive)
Cc1ccc(C)c(CNC(=O)c2cc3ccccn3n2)c1	-9.01% (inactive)
c1ccc2c(c1)-c1ccccc1C2N1CC2CCC(CC2)C1	1.3% (inactive)
COc1ccc(NS(=O)(=O)c2cc3c4c(c2)CC(=O)N4CCC3)cc1Cl	-28.2% (inactive)
CC(C)OCCCNc1ncnc2c1[nH]c1ccc(F)cc12	-22.4% (inactive)
CCCOC(=O)c1c(NC(=O)c2cc3nc(-c4ccc(OC)cc4)cc(C(F)(F)F)n3n2)sc2c1CCCC2	3.32% (inactive)
O=c1[nH]c2cc(Br)ccc2n2cccc12	11.1% (inactive)
O=C1CSC2(C(=O)N(Cc3ccccc3)c3ccccc32)N1c1cccc(F)c1 (stereo unspecified)	2.62% (inactive)
COc1ccc(-c2c(C)cc3oc(=O)cc(-c4ccccc4)c3c2C)cc1OC	-25.9% (inactive)
CC(=O)COc1ccc2c(-c3ccccc3)cc(=O)oc2c1	2.99% (inactive)

###

# measurementTarget: Cruzipain (Trypanosoma cruzi) (UniProt P25779)
# assayOverview: qHTS Assay for Promiscuous and Specific Inhibitors of Cruzain (without detergent); further: nearly all actives have a fitted effect of over 40% in size;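 on max response, negative = inhibition: plate controls were enzyme without inhibitor for no effect and buffer without enzyme for full effect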
# measurementSetup: purified cruzain, Z-FR-AMC fluorescence, no detergent
Among all 200,000 compounds or so, about 4,500 (2.2%) were called active. About 12% were inconclusive and are not listed. The list comes from a sample in which actives are over-represented; it also holds close analogues and randomly drawn compounds.
quantity: max response, negative = inhibition

compound	measurementTarget	testValue
COc1ccc(NC(=O)CNC(=O)Cn2ccc3ccccc3c2=O)c(OC)c1	Cruzipain (Trypanosoma cruzi) (UniProt P25779)	10.4% (inactive)
Cc1nc2cnc(Nc3ccccc3)nc2n(Cc2ccc(F)cc2)c1=O	Cruzipain (Trypanosoma cruzi) (UniProt P25779)	-10.9% (inactive)
COC(=O)C(C)N(C#N)c1nc(C)nc(C)n1 (stereo unspecified)	Cruzipain (Trypanosoma cruzi) (UniProt P25779)	1.82% (inactive)
Cc1cc(C)nc(N(C#N)CC(=O)Nc2ccccc2)n1	Cruzipain (Trypanosoma cruzi) (UniProt P25779)	5.89% (inactive)
CCCOc1ccc(C(=O)Nc2ccc3oc(-c4cccc(Cl)c4Cl)nc3c2)cc1	Cruzipain (Trypanosoma cruzi) (UniProt P25779)	7.94% (inactive)
COc1ccc(N2CCN(C3=NS(=O)(=O)C(c4cccc(Br)c4)=C3C)CC2)cc1	Cruzipain (Trypanosoma cruzi) (UniProt P25779)	-1.42% (inactive)
COc1cccc2c1cc1c(=O)n(CC(=O)N3CCN(c4ccccc4)CC3)nc(C)n12	Cruzipain (Trypanosoma cruzi) (UniProt P25779)	-2.78% (inactive)
CCn1c(C)c(C)c2cc(C(=O)N3CCN(c4cccc(C)c4C)CC3)ccc21	Cruzipain (Trypanosoma cruzi) (UniProt P25779)	-25.1% (inactive)
COc1ccccc1C(=O)OCc1cc(=O)n2nc(-c3cccs3)sc2n1	Cruzipain (Trypanosoma cruzi) (UniProt P25779)	-3.73% (inactive)
CCn1cc(C(=O)NCc2ccc(C)cc2)c(=O)c2cc(S(=O)(=O)N3CCc4ccccc4C3)ccc21	Cruzipain (Trypanosoma cruzi) (UniProt P25779)	-8.13% (inactive)
Cc1ccc(-c2c3c(=O)n(C)c(=O)n(C)c3cn2-c2ccccc2O)cc1	Cruzipain (Trypanosoma cruzi) (UniProt P25779)	12.7% (inactive)
O=C1CCCC2=C1C(c1ccccc1)n1c(s/c(=C/c3cccc(F)c3)c1=O)=N2 (stereo unspecified)	Cruzipain (Trypanosoma cruzi) (UniProt P25779)	-0.66% (inactive)
Cc1cccc(-n2c(SCC(N)=O)nc3c(c2=O)C2(CCCCC2)Cc2ccccc2-3)c1	Cruzipain (Trypanosoma cruzi) (UniProt P25779)	-0.318% (inactive)
CCOC(=O)c1c(C)oc2nc(C)nc(N(CC(C)C)CC(C)C)c12	Cruzipain (Trypanosoma cruzi) (UniProt P25779)	-3.29% (inactive)
O=C(c1ccc(CN2CCOCC2)cc1)N1CCN(c2ccccc2F)CC1	Cruzipain (Trypanosoma cruzi) (UniProt P25779)	-4.12% (inactive)
COc1ccc(C2CC(c3cccs3)=Nc3ccccc3S2)cc1OC (stereo unspecified)	Cruzipain (Trypanosoma cruzi) (UniProt P25779)	13.4% (inactive)
Cc1ccc(S(=O)(=O)N2CCC(C(=O)Nc3cc(C)ccc3C)CC2)cc1	Cruzipain (Trypanosoma cruzi) (UniProt P25779)	10.8% (inactive)
O=C(c1ccc(Br)cc1)N(Cc1cccs1)c1ccc(F)cc1	Cruzipain (Trypanosoma cruzi) (UniProt P25779)	11.6% (inactive)
COc1ccc(/C=N/NC(=O)c2ccc(Cl)cc2)cc1COC(C)=O	Cruzipain (Trypanosoma cruzi) (UniProt P25779)	7.25% (inactive)
CC(=O)Nc1c(C)nn(-c2ccccc2)c1N1CCC(C(=O)Nc2cc(Cl)ccc2C)CC1	Cruzipain (Trypanosoma cruzi) (UniProt P25779)	-5.38% (inactive)
COc1cccc2cc(-c3nc(Cl)c4c5c(sc4n3)CC(C)CC5)c(=O)oc12 (stereo unspecified)	Cruzipain (Trypanosoma cruzi) (UniProt P25779)	-8.92% (inactive)
